Target: Human Calpain 9/NS1 (Homo sapiens, UniProt O14815)
Sequence (O14815 whole entry): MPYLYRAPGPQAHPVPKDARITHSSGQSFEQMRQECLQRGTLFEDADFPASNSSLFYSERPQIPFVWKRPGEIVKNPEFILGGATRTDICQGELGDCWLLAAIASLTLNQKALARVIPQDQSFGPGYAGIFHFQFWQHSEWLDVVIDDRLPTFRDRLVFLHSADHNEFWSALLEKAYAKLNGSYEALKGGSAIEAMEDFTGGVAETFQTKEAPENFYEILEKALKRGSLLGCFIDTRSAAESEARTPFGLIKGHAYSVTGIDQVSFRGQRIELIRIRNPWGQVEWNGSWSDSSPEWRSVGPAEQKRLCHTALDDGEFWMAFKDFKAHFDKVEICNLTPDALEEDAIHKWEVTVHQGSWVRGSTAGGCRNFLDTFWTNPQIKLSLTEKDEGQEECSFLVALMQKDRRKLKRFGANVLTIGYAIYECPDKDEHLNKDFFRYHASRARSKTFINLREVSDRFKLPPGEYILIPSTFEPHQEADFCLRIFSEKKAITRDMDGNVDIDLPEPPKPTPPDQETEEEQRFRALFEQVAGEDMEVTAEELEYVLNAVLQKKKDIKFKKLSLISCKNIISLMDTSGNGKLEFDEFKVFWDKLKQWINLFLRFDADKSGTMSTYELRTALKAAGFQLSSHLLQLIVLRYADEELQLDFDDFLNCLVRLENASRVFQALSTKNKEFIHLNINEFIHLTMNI
Sequence (P04632 whole entry partner): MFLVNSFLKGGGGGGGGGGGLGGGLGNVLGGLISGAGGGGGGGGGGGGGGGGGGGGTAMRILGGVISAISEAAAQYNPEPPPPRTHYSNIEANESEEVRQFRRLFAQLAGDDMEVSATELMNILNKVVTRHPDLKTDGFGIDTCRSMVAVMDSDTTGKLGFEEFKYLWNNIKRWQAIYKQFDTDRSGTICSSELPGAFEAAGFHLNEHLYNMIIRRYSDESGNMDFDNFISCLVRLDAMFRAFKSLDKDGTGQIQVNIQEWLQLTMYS
Assay: Calpain inhibition continuous fluorescence (FRET) assay, Human Calpain 9/NS1
Type: biochemical
Settings: Column C; read-out: Human Calpain 9/NS1 IC50
A collection of molecules and their measured IC50

Below, 3 molecules whose answers are already recorded.
[
  {
    "molecule": "Cn1ncc(C(=O)N[C@@H](Cc2ccccc2)C(=O)C(N)=O)c1-c1cccc(C(F)(F)F)n1",
    "IC50": "< 3 µM"
  },
  {
    "molecule": "Cc1cc(C(F)(F)F)cc(-n2nc(C)cc2C(=O)N[C@@H](Cc2ccccc2)C(=O)C(=O)NC2CC2)n1",
    "IC50": "> 10 µM"
  },
  {
    "molecule": "Cc1cc(C(=O)N[C@@H](Cc2ccccc2)C(=O)C(N)=O)n(-c2nccs2)n1",
    "IC50": "< 3 µM"
  }
]

Okay, now this molecule:
For reference, reported IC50 for `Cc1cc(C(=O)N[C@@H](Cc2ccccc2)C(=O)C(N)=O)n(-c2cccc(CNC(=O)Cc3ccccc3)c2)n1` stands at < 3 µM
